Where do the numbers come from? From patent US9040524B2.

# Test system: Microsporum canis
# Test Description: Antifungal activity in vitro, resazurin growth inhibition screen: Microsporum canis
# Assay type: cell-based
# Assay Context: Microsporum canis B68128
Reported Property: Inf. B pIC50
Reply briefly: the number, and no unit.

State the recorded Inf. B pIC50 for this entry: Cl.O=C1CCc2cc(C3NCc4c(Cl)cccc4-n4cccc43)ccc21 (stereo not drawn) [Compound 51] 5.59

State the recorded Inf. B pIC50 for this entry: Cl.Clc1cccc2c1CNC(c1ccc3c(c1)OCC3)c1cccn1-2 (stereo not drawn) [Compound 27] 5.15

State the recorded Inf. B pIC50 for this entry: FC1(F)Oc2ccc(C3=NCc4c(Cl)cccc4-n4cccc43)cc2O1 [Compound 74] 6.87

State the recorded Inf. B pIC50 for this entry: Cl.Clc1cc(Cl)c2c(c1)CNC(c1ccc3c(c1)CCO3)c1cccn1-2 (stereo not drawn) [Compound 34] 5.70

State the recorded Inf. B pIC50 for this entry: Cl.Clc1ccc(Cl)c2c1CNC(c1ccc3c(c1)CCO3)c1cccn1-2 (stereo not drawn) [Compound 32] 5.52

State the recorded Inf. B pIC50 for this entry: Clc1ccc2c(c1)-n1cccc1C(c1ccc3c(c1)CCCO3)=NC2 [Compound 42] 4.49

State the recorded Inf. B pIC50 for this entry: Br.Clc1cccc2c1-n1cccc1C(c1ccc3c(c1)OCO3)NC2 (stereo not drawn) [Compound 7] 5.30

State the recorded Inf. B pIC50 for this entry: Cl.Fc1cccc2c1CNC(c1ccc3c(c1)CCC(F)(F)O3)c1cccn1-2 (stereo not drawn) [Compound 53] 4.49

State the recorded Inf. B pIC50 for this entry: Clc1ccc(Cl)c2c1CN=C(c1ccc3c(c1)OCC3)c1cccn1-2 [Compound 47] 5.40

State the recorded Inf. B pIC50 for this entry: Br.Clc1ccc2c(c1)-n1cccc1C(c1ccc3c(c1)OCO3)NC2 (stereo not drawn) [Compound 6] 5.00

State the recorded Inf. B pIC50 for this entry: Cl.Fc1cc(F)c2c(c1)-n1cccc1C(c1ccc3c(c1)CCC(F)(F)O3)NC2 (stereo not drawn) [Compound 54] 5.09

State the recorded Inf. B pIC50 for this entry: FC1(F)Oc2ccc(C3=NCc4c(Cl)cc(Cl)cc4-n4cccc43)cc2O1 [Compound 79] 6.28

State the recorded Inf. B pIC50 for this entry: FC1(F)CCc2cc(C3=NCc4ccc(Cl)cc4-n4cccc43)ccc21 [Compound 67] 5.09

State the recorded Inf. B pIC50 for this entry: Cl.Clc1ccc2c(c1Cl)CNC(c1ccc3c(c1)CCC3)c1cccn1-2 (stereo not drawn) [Compound 18] 4.62

State the recorded Inf. B pIC50 for this entry: Fc1cccc2c1CN=C(c1ccc3c(c1)CCCO3)c1cccn1-2 [Compound 40] 4.49

State the recorded Inf. B pIC50 for this entry: Br.COc1cccc2c1CNC(c1ccc3c(c1)OCO3)c1cccn1-2 (stereo not drawn) [Compound 8] 4.66

State the recorded Inf. B pIC50 for this entry: CN1CCc2cc(C3=NCc4c(Cl)cccc4-n4cccc43)ccc21 [Compound 83] 5.66
